studyTarget: human BACE1 (rhBACE1) (Homo sapiens, UniProt P56817)
Sequence (P56817 46-501): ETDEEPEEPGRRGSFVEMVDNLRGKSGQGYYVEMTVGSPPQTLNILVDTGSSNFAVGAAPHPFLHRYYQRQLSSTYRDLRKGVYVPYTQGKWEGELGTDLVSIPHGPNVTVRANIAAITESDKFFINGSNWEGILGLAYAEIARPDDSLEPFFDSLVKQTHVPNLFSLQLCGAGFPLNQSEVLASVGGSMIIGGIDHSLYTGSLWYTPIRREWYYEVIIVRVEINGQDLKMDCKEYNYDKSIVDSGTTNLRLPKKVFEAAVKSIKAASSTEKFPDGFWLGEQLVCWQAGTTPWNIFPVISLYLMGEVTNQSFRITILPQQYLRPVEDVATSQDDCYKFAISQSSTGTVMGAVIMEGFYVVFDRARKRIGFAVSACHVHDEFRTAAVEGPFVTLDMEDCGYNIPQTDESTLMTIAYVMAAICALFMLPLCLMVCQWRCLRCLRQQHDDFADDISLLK
protocolText: BACE1 fluorescence polarization (FP) competition binding assay with 5-TAMRA-BACE020 probe
conditionInfo: competition with 3 nM 5-TAMRA-BACE020, 12 nM rhBACE1, pH 4.4
Positions of bridges follow the written chain, without caps; N, C: chain ends. Residues, ends and D or L forms follow the SMILES beside them.
Listing: IC50 of selected molecules

Lookup result for CC[C@H](C)[C@H](NC(=O)[C@H](Cc1c[nH]cn1)NC(=O)[C@H](CCC(=O)O)NC(=O)[C@H](CCC(=O)O)NC(=O)[C@H](CC(N)=O)NC(C)=O)C(=O)N[C@@H](Cc1ccc(O)cc1)C(=O)N[C@H]1CSSC[C@@H](C(=O)NCC(N)=O)NC(=O)CNC(=O)[C@H](CC(C)C)NC(=O)CNC(=O)[C@H](CC(C)C)NC(=O)[C@H](CC(C)C)NC(=O)[C@H](CCCNC(=N)N)NC1=O [BACE017] (Ac-NEEHIYCRLLGLGCG-NH2; disulfide 7-14) ; measured IC50: > 10000 nM

Turning now to a further molecule:
Lookup result for CSCC[C@@H]1NC(=O)[C@H](CC(C)C)NC(=O)[C@H](CCCNC(=N)N)NC(=O)[C@@H](NC(=O)[C@H](Cc2ccc(O)cc2)NC(=O)[C@@H]2CCCN2C(=O)[C@H](CO)NC(=O)[C@H](CC(C)C)NC(=O)[C@H](CCC(=O)O)NC(=O)[C@H](CC(N)=O)NC(C)=O)CSSC[C@@H](C(=O)N[C@@H](CC(=O)O)C(N)=O)NC(=O)CNC(=O)[C@H](CC(C)C)NC(=O)CNC1=O [BACE019] (Ac-NELSPYCRLMGLGCD-NH2; disulfide 7-14) ; measured IC50: 10 nM

* * *

studyTarget: human BACE1 (rhBACE1) (Homo sapiens)
protocolText: BACE1 fluorescence polarization (FP) competition binding assay with 5-TAMRA-BACE020 probe
conditionInfo: competition with 3 nM 5-TAMRA-BACE020, 12 nM rhBACE1, pH 4.4
pIC50: −log10 of the molar value.
reportedEndpoint: pIC50

Lookup result for Ac-NLTTYPYFIPLP-NH2 [BMS1, reference compound] ; measured pIC50: < 5.00

Lookup result for Ac-NEESMYSRLLGIGSG-NH2 [BACE027] ; measured pIC50: < 5.00

Lookup result for Ac-PEESLYSRLLALGSG-NH2 [BACE028] ; measured pIC50: < 5.00

Lookup result for Ac-SGPYFIEYMSAV-NH2 [BACE010] ; measured pIC50: < 5.00

***
Lookup result for Ac-KEESIYSRLMGLGSG-NH2 [BACE025] ; measured pIC50: ≤ 5.00

* * *

studyTarget: UniProtKB P56817
protocolText: BACE1 fluorescence polarization (FP) competition binding assay with 5-TAMRA-BACE020 probe
conditionInfo: competition with 3 nM 5-TAMRA-BACE020, 12 nM rhBACE1, pH 4.4
pIC50: −log10 of the molar value. Positions of bridges follow the written chain, without caps; N, C: chain ends. Residues, ends and D or L forms follow the SMILES beside them.
Listing: pIC50 of selected compounds

Take a look at these entries with their results.
Lookup result for CC[C@H](C)[C@@H]1NC(=O)CNC(=O)[C@H](CC(C)C)NC(=O)[C@H](CC(C)C)NC(=O)[C@H](C)NC(=O)[C@@H](NC(=O)[C@H](Cc2ccc(O)cc2)NC(=O)[C@H](CCSC)NC(=O)[C@H](CO)NC(=O)[C@H](CCC(=O)O)NC(=O)[C@H](CCC(=O)O)NC(=O)[C@H](CC(N)=O)NC(C)=O)CSSC[C@@H](C(=O)NCC(N)=O)NC(=O)CNC1=O [BACE048] (Ac-NEESMYCALLGIGCG-NH2; disulfide 7-14) ; measured pIC50: < 5.00

Lookup result for CC[C@H](C)[C@@H]1NC(=O)CNC(=O)[C@H](CC(C)C)NC(=O)[C@H](CC(C)C)NC(=O)[C@H](C)NC(=O)[C@@H](NC(=O)[C@H](Cc2ccc(O)cc2)NC(=O)[C@H](CCSC)NC(=O)[C@H](CO)NC(=O)[C@H](CCC(=O)O)NC(C)=O)CSSC[C@@H](C(=O)NCC(N)=O)NC(=O)CNC1=O [BACE057] (Ac-ESMYCALLGIGCG-NH2; disulfide 5-12) ; measured pIC50: < 5.00

Lookup result for CC[C@H](C)[C@@H]1NC(=O)CNC(=O)[C@H](CC(C)C)NC(=O)[C@H](CC(C)C)NC(=O)[C@H](CCCNC(=N)N)NC(=O)[C@@H](NC(=O)[C@H](Cc2ccc(O)cc2)NC(=O)[C@H](CCSC)NC(C)=O)CSSC[C@@H](C(=O)NCC(N)=O)NC(=O)CNC1=O [BACE032] (Ac-MYCRLLGIGCG-NH2; disulfide 3-10) ; measured pIC50: < 5.00

Lookup result for CC[C@H](C)[C@@H]1NC(=O)CNC(=O)[C@H](CC(C)C)NC(=O)[C@H](CC(C)C)NC(=O)[C@H](CCCNC(=N)N)NC(=O)[C@@H](NC(=O)[C@H](Cc2ccc(O)cc2)NC(C)=O)CSSC[C@@H](C(=O)NCC(N)=O)NC(=O)CNC1=O [BACE033] (Ac-YCRLLGIGCG-NH2; disulfide 2-9) ; measured pIC50: < 5.00

Lookup result for CC[C@H](C)[C@H](NC(=O)[C@H](Cc1ccccc1)NC(=O)[C@H](Cc1ccc(O)cc1)NC(=O)[C@@H]1CCCN1C(=O)[C@H](Cc1ccc(O)cc1)NC(C)=O)C(=O)N1CCC[C@H]1C(=O)N[C@@H](CC(C)C)C(N)=O [BMS4, reference compound] ; measured pIC50: < 5.00

***
Lookup result for CC[C@H](C)[C@@H]1NC(=O)CNC(=O)[C@H](CC(C)C)NC(=O)[C@H](CC(C)C)NC(=O)[C@H](CCCNC(=N)N)NC(=O)[C@@H](NC(=O)[C@H](Cc2ccc(O)cc2)NC(=O)[C@H](CCSC)NC(=O)[C@H](CO)NC(=O)[C@H](CCC(=O)O)NC(=O)[C@H](CCC(=O)O)NC(=O)[C@H](CC(N)=O)NC(C)=O)CSSC[C@@H](C(=O)NCC(N)=O)NC(=O)CNC1=O [BACE020] (Ac-NEESMYCRLLGIGCG-NH2; disulfide 7-14) ; measured pIC50: 7.96
